Entries and their log10 of minimal effective dose
Test system: Rodentolepis nana
assay overview: Cestodicidal activity against Hymenolepis nana infected in po dosed rat assessed as […] after 3 days
Format: functional
measurement parameters: 72 h, read-out: MED
readout: log10 of minimal effective dose (log10 of the value in mg/kg)

compound	recorded result
O=C(Nc1ccc(N=C=S)cc1Cl)c1ccc2ccccc2c1O	0.88
O=C(Nc1ccc([N+](=O)[O-])cc1)c1cc(Br)c2ccccc2c1O	2.00
O=C(Nc1ccc(Cl)cc1Cl)c1cc(Br)c2ccccc2c1O	1.70
O=C(Nc1ccc(N=C=S)cc1Cl)c1cc(Br)c2ccccc2c1O	2.40
O=C(Nc1ccc([N+](=O)[O-])cc1Cl)c1cc(Cl)ccc1O [NICLOSAMIDE]	1.70
O=C(Nc1ccc(N=C=S)cc1)c1ccc2ccccc2c1O	2.00
O=C(Nc1ccc(Cl)cc1[N+](=O)[O-])c1cc(Br)c2ccccc2c1O	2.40
O=C(Nc1ccc([N+](=O)[O-])cc1Cl)c1cc(Br)c2ccccc2c1O	1.11
O=C(Nc1ccc(Cl)c(N=C=S)c1)c1cc(Br)c2ccccc2c1O	2.00
O=C(Nc1ccccc1[N+](=O)[O-])c1ccc2c(Br)cccc2c1O	2.40
